# subject of test: T1, human CLDN9 (human, UniProt O95484 1-217)
# T1 construct: Expressed on 293T cells from human CLDN9/pCMV6-Entry (OriGene); Transfection was confirmed with an anti-FLAG antibody
# T1 sequence: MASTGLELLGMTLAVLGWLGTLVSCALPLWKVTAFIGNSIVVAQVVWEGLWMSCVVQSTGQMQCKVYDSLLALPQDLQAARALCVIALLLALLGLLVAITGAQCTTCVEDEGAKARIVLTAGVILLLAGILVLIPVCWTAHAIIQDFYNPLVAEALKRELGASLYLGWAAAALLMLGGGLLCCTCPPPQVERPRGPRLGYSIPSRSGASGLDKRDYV
# assay notes: flow cytometry on transiently transfected 293T cells, 0.8-100 nM
value type: binding result

humanized anti-CLDN6 antibody H2L2 (antibody, human IgG1, kappa, L234A L235A, V domains shown, Human IgG1 LALA heavy chain and human kappa light chain; also called H2L2 antibody; hH2 + hL2) VH: EVQLVQSGAEVKKPGASVKVSCKTSGYTFTEYTMHWVRQAPGKSLEWMGGVNPNSGDTSYAQKFQGRVTITADTSTSTAYMELSSLRSEDTAVYYCARPGGYDVGYYAMDYWGQGTLVTVSS VL: DIQMTQSPSSLSASVGDRVTITCRASQDINNYLNWYQQKPGKAVKLLIYFTSRLHSGVPSRFSGSGSGTHYTLTISSLQPEDFATYYCQQGYPLPWTFGQGTKVEIKR | binds
humanized anti-CLDN6 antibody H3L3 (antibody, human IgG1, kappa, L234A L235A, V domains shown, Human IgG1 LALA heavy chain and human kappa light chain; also called H3L3 antibody; hH3 + hL3) VH: EVQLVQSGAEVKKPGASVKVSCKTSGYTFTEYTMHWVRQAPGQGLEWMGGVNPNSGDTSYAQKFQGRVTLTVDKSTSTAYMELSSLRSEDTAVYYCARPGGYDVGYYAMDYWGQGTLVTVSS VL: DIQMTQSPSSLSASVGDRVTITCRASQDINNYLNWYQQKPGGAVKLLIYFTSRLHSGVPSRFSGSGSGTDYTLTISSLQPEDFATYYCQQGYPLPWTFGGGTKVEIKR | binds
humanized anti-CLDN6 antibody H1L1 (antibody, human IgG1, kappa, L234A L235A, V domains shown, Human IgG1 LALA heavy chain and human kappa light chain; also called H1L1 antibody; hH1 + hL1) VH: QVQLVQSGAEVKKPGASVKVSCKASGYTFTEYTMHWVRQAPGQGLEWMGGVNPNSGDTSYAQKFQGRVTITADTSTSTAYMELSSLRSEDTAVYYCARPGGYDVGYYAMDYWGQGTLVTVSS VL: DIQMTQSPSSLSASVGDRVTITCRASQDINNYLNWYQQKPGKAPKLLIYFTSRLHSGVPSRFSGSGSGTDYTLTISSLQPEDFATYYCQQGYPLPWTFGQGTKVEIKR | binds
humanized anti-CLDN6 antibody H2L4 (antibody, human IgG1, kappa, L234A L235A, V domains shown, Human IgG1 LALA heavy chain and human kappa light chain; also called H2L4 antibody; hH2 + hL4) VH: EVQLVQSGAEVKKPGASVKVSCKTSGYTFTEYTMHWVRQAPGKSLEWMGGVNPNSGDTSYAQKFQGRVTITADTSTSTAYMELSSLRSEDTAVYYCARPGGYDVGYYAMDYWGQGTLVTVSS VL: DIQMTQSPSSLSASVGDRVTITCRASQDINNYLNWYQQKPGGAVKLLIYFTSRLHSGVPSRFSGSGSGTDYTLTISSLQPEDFATYYCQQGNTLPWTFGGGTKVEIKR | binds
